Cited source for all entries: the supplement of paper PMC8975748

In this section, each of the molecules is paired with its reported z-score of subpopulation abundance.
# System: Saccharomyces cerevisiae BY4741 SeMeCo community
# test.summary: z-score of subpopulation abundance vs DMSO median, subpopulation auxotrophic for U; higher = larger share of this subpopulation than in DMSO controls
# test.settings: 10 µM; 24 h; SM minimal medium; subpopulation (auxotrophy): U
Counter-ions that a name gives are not always drawn.
Output: the number by itself.

As a guide, the following entries are already answered.
INSERT INTO results (molecule, recorded_result) VALUES
  ('CN(C)[C@@H]1C(=O)C(C(N)=O)=C(O)[C@@]2(O)C(=O)C3=C(O)c4c(O)ccc(Cl)c4[C@@](C)(O)[C@H]3C[C@@H]12 [Chlortetracycline HCl]', 0.25),
  ('CC[C@H]1[C@@H]2C[C@H]3[C@@H]4N(C)c5ccccc5[C@]45C[C@@H]([C@@H]2[C@H]5O)N3[C@@H]1O [Ajmaline]', 0.29);

Q: Bench note: what z-score of subpopulation abundance did CCCN1C[C@H](CSC)C[C@@H]2c3cccc4[nH]cc(c34)C[C@H]21 [Pergolide Mesylate] show?
A: -0.62

Q: Bench note: what z-score of subpopulation abundance did C=CN1CCCC1=O.II [Povidone iodine] show?
A: 0.2

Q: Bench note: what z-score of subpopulation abundance did CN(C)C(=O)Oc1cccc([N+](C)(C)C)c1 [Neostigmine Bromide] show?
A: -0.26

Q: Bench note: what z-score of subpopulation abundance did CCCCCCCCCCCCCCCC[n+]1ccccc1 [Cetylpyridinium Chloride] show?
A: 1.27

Q: Bench note: what z-score of subpopulation abundance did C=CC[C@]1(O)CC[C@H]2[C@@H]3CCC4=CC(=O)CCC4=C3C=C[C@@]21C [Altrenogest] show?
A: -1.52

Q: Bench note: what z-score of subpopulation abundance did C=C[C@H]1CN2CC[C@H]1C[C@H]2[C@H](O)c1ccnc2ccccc12 [Cinchonidine] show?
A: 0.59

Q: Bench note: what z-score of subpopulation abundance did C[C@@H]1O[C@@H](O[C@H]2C[C@@H](O)[C@]3(CO)[C@H]4[C@H](O)C[C@]5(C)[C@@H](C6=CC(=O)OC6)CC[C@]5(O)[C@@H]4CC[C@]3(O)C2)[C@H](O)[C@H](O)[C@H]1O [Ouabain] show?
A: 0.18
